Molecular target: T1, pm6 (Y16 and Y17 sulfated; Y15 not sulfated)
T1 construct: also called sulfated CCR8 N-terminal peptide pm6
T1 sequence (peptide, as listed by the source): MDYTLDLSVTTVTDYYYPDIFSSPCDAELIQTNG
Assay: ELISA on coated peptide [cont.]

[
  {
    "binder": "anti-CCR8 mAb 1-14 (antibody, V domains shown, Murine hybridoma mAb) VH: QVQLVETGGGLVRPGNSLKLSCVTSGFTFSNYRMHWLRQPPGKRLEWIAVIKVKSDNYGANYAESVKGRFTISRDDSKSSVYLQVNRLREEDTATYYCSSPTYPGSSGFAYWGQGTLVTVSA VL: DIQMTQTTSSLSASLGDRVTISCRASQDISNYLNWYQQKPDGTVKLLIYYTSRLHSGVPSRFSGSGSGTDYSLTISNLEQEDIATYFCQQGNKFPPTFGGGTKLEIN",
    "binding result": "binds"
  },
  {
    "binder": "anti-CCR8 mAb 1-6 (antibody, V domains shown, Murine hybridoma mAb) VH: EVQLQQSGPELLKPGTSVKISCTTSGYTFSDYTLHWVKQSHGKSLEWIGGITPKNGDTRYDPRFKDKATLTIDKSSSAAYMELRSLTSEDSAVYYCARVARFYGVSPYAMDYWGQGASVTVSS VL: DVVMTQTPLSLPVSLGDQASISCRCTQSLLHSNGDTYLHWYLQKPGQSPKLLIYKVSNRFSGVPDRFSGSGSGTDFTLEITRVEAEDLGVYFCSQTTHVPYTFGGGTKLEIK",
    "binding result": "binds"
  },
  {
    "binder": "anti-CCR8 mAb 1-11 (antibody, V domains shown, Murine hybridoma mAb) VH: QVQLQQPGAELVKPGASVKMSCKATGYTFTGYNMHWVKQTPGQGLEWIGAISPGKGDTSYNLKFKGKATLTTDKSSSTAYMQLSSLTSADSAVYYCARSGGTPFAYWGQGTLVTVSA VL: DVVMTQTPLSLPVSLGDQASISCRSSQSLVHSNGDTYLYWYLQKPGQSPKLLIYKVSNRFSGVPDRFSGSGSGTDFTLKINRVEAEDLGVYFCSQSTHVPYTFGGGTKLEIK",
    "binding result": "binds"
  }
]
